Origin of the recorded values: ChEMBL document CHEMBL1201862

- System: A498
- Method description: NCI tumour cell line growth inhibition, 48 h
Active and inactive are the calls of the source. Rule as the data show it: active = GI50 up to about 1.1 µM and inactive = higher.
Labels: class 1 for active, class 0 for inactive

[N-]=[N+]=NC1C(O)C(CO)OC1n1ccc(N)nc1=O (configuration not stated)	class 0
Clc1cc(Cl)c2ns[s+]c2c1Cl	class 0
O=C(O/N=C1/CCCC/C1=C\c1ccccc1)c1ccccc1	class 1
Cc1nc2c(nc1C)-c1c(c3c(n1C)C(=O)CCC3)C(=O)C2=O	class 1
Nc1nc(=O)c(/N=N/c2ccccc2)c(N)[nH]1	class 0
COc1cc2cc(C(=O)N3CC(CCl)c4c3cc(O)c3ccccc43)[nH]c2c(OC)c1OC (configuration not stated)	class 1
Cc1nc2ccccc2c(=O)n1NC(=O)Cc1ccccc1	class 0
CSc1nc(SC)c2c(C#N)n[nH]c2n1	class 0
C=CCc1cccc2cc(C(=O)Nc3ccccc3)c(=N)oc12	class 0
COC(=O)[C@@H]1COC(=O)N1	class 0
O=C(/C=C/c1ccc(O)c(O)c1)c1cc(O)cc(O)c1	class 0
Cc1cc(-c2nc3ccc(F)cc3s2)ccc1N	class 0

====

- Tested on: KM-20L2
- Method description: NCI tumour cell line growth inhibition, 48 h
Active and inactive are the calls of the source. Rule as the data show it: active = GI50 up to about 1.1 µM and inactive = higher.
Measured attribute: GI50

O=C1CC2CCN(C(=O)c3ccccc3)CC2CCN1.O=C1CCC2CC(C(=O)c3ccccc3)CCC2CN1 (stereo unspecified)	> 100 µM (inactive)
COC(=O)C(=O)C(C(=O)C(=O)Nc1ccccc1[N+](=O)[O-])c1nc2ccc([N+](=O)[O-])cc2nc1O (stereo unspecified)	> 100 µM (inactive)
O=[N+]([O-])c1cc(/C=N/NS(=O)(=O)c2ccc(F)cc2)c(O)c([N+](=O)[O-])c1	25.9 µM (inactive)
Cc1nc2sccn2c1C(=O)NN	> 100 µM (inactive)
CC(=O)O[C@@H]1C2C(=O)OC(=O)C2C2CCC[C@]23O[C@H]13 (stereo partly specified)	> 100 µM (inactive)
COc1ccc(NC(=O)CC/C(CC(=O)c2ccccc2Cl)=N\Nc2nnc(C)n2N)cc1	> 100 µM (inactive)

====

# maps each entry to its GI50
- System: Malme-3M
- Method description: NCI tumour cell line growth inhibition, 48 h
Activity calls are given as the source filed them. Rule as the data show it: active = GI50 up to about 1.1 µM and inactive = higher. Residues, ends and D or L forms follow the SMILES beside them.
Measured attribute: GI50

CCn1c2ccc(C(=O)CCCN3CCCCC3)cc2c2cc(C(=O)CCCN3CCCCC3)ccc21	6.85 µM (inactive)
O=C(NNc1ccnc2cc(Cl)ccc12)/C(=C\c1ccccc1Cl)NC(=O)c1ccccc1	52.6 µM (inactive)
C=C(Cl)/C(=C\Cl)CCC(Cl)C(C)C (centres undefined)	> 100 µM (inactive)
CCOC(=O)c1s/c(=N\Nc2nc3ccccc3cc2C2OCCO2)n(Cc2ccccc2)c1C	> 100 µM (inactive)
Cn1cnc([N+](=O)[O-])c1Sc1nnnn1C	13.2 µM (inactive)
CCc1cccc(C(C)C)c1NC(=O)C(=O)CC(=O)c1c(C)[n+]([O-])c2ccccc2[n+]1[O-]	> 100 µM (inactive)
CC(=O)NC(CO)C(=O)NC(Cc1ccc(O)cc1)C(=O)NCC(N)=O (stereo not drawn) (Ac-Ser-Tyr-Gly-NH2; configuration not given here)	> 100 µM (inactive)
CCCCCCCCCCCCCCCCCCOCC(COCCOCC[N+]1(CCCCCC(=O)[O-])CCCC1)Oc1ncccn1 (centres undefined)	16.7 µM (inactive)
Cc1cc(N(CCC#N)CCC#N)ccc1/C=C\C(=O)Nc1ccccc1	> 100 µM (inactive)
O=C1CC2CCN(C(=O)c3ccccc3)CC2CCN1.O=C1CCC2CC(C(=O)c3ccccc3)CCC2CN1 (centres undefined)	> 100 µM (inactive)
C=CCc1cc(-c2cc(CC=C)c(O)c(CN(CCCl)CCCl)c2)cc(CN(CCCl)CCCl)c1O	18.7 µM (inactive)
O=c1c2c3c(sc2nc(CN2CCNCC2)n1-c1ccccc1)CCCC3	> 100 µM (inactive)
C=C(Cl)C(Cl)(CBr)CCCC(C)(C)Cl (centres undefined)	18 µM (inactive)
O=c1c(-c2ccccc2)c(SCCCN2CCCCC2)n(-c2ccccc2)c(=S)n1-c1ccccc1	21.5 µM (inactive)
C#C[C@]1(O)CC[C@H]2[C@@H]3CCC4=C/C(=N/CCOC(=O)c5cccc6cc7ccccc7nc56)CC[C@@H]4[C@H]3CC[C@@]21C	27.7 µM (inactive)
COC(=O)Cn1cnc2c(Cl)nc(Nc3ccccc3)nc21	54.3 µM (inactive)
COc1ccc2[nH]c3c(C)c4ncccc4c(C)c3c2c1	1.65 µM (inactive)
CC(C)O/C=C1\C(=O)C2(SCCS2)[C@H]2CCCC[C@@H]12	32.7 µM (inactive)
O=C1NC(=O)C(c2c[nH]c3ccccc23)=C1c1cn(C(c2ccccc2)(c2ccccc2)c2ccccc2)cn1	10.4 µM (inactive)
